Biological target: Epidermal growth factor receptor (Homo sapiens, UniProt P00533)
Sequence (P00533 whole entry, the tested form may be a part): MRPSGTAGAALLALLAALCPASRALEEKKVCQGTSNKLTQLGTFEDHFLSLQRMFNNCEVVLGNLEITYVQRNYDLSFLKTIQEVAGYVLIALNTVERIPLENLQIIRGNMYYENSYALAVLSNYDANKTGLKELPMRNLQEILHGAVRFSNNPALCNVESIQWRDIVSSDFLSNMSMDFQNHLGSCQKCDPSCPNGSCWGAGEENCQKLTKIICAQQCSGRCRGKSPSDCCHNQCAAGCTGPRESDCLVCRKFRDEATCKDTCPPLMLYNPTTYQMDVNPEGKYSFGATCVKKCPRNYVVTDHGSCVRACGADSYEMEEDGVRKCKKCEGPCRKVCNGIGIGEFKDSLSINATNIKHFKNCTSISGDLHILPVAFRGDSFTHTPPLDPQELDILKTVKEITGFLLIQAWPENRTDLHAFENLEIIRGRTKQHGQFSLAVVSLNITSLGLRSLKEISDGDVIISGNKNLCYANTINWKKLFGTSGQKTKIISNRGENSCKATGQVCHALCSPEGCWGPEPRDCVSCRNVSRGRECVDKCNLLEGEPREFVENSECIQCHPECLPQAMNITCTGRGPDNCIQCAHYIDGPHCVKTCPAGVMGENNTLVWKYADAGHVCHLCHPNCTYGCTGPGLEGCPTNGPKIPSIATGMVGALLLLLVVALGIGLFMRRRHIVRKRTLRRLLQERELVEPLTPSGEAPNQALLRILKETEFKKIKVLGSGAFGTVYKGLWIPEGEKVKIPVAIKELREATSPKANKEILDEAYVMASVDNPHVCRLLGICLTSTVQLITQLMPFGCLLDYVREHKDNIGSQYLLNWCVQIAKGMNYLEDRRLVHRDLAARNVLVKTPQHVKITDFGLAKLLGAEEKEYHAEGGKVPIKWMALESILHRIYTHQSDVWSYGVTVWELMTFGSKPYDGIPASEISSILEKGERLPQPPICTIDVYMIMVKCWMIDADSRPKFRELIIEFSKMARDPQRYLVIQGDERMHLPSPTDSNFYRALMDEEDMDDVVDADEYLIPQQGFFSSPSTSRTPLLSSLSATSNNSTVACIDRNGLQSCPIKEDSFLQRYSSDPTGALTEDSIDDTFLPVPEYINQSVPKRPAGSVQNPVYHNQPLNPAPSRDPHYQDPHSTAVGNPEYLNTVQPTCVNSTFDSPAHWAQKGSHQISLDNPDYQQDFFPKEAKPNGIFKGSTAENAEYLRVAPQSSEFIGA
Assay: Inhibition of recombinant human N-terminal GST-tagged EGFR wild type (669 to 1210 residues) expressed in baculovirus infected Sf21 insect cells insect cells using AQT0734 as substrate measured up to 240 mins by fluorescence assay

# smi, unit, Ki
rows = [
    ("C=CC(=O)Nc1cc(Nc2nccc(-n3cc(CN(C)C)c(-c4ccccc4)n3)n2)c(OC)cc1N1CCOCC1", "nM", 271),
]

* * *

# pKi per entry
Molecular target: Receptor tyrosine-protein kinase erbB-2 (Homo sapiens, UniProt P04626)
Sequence (P04626 whole entry, the tested form may be a part): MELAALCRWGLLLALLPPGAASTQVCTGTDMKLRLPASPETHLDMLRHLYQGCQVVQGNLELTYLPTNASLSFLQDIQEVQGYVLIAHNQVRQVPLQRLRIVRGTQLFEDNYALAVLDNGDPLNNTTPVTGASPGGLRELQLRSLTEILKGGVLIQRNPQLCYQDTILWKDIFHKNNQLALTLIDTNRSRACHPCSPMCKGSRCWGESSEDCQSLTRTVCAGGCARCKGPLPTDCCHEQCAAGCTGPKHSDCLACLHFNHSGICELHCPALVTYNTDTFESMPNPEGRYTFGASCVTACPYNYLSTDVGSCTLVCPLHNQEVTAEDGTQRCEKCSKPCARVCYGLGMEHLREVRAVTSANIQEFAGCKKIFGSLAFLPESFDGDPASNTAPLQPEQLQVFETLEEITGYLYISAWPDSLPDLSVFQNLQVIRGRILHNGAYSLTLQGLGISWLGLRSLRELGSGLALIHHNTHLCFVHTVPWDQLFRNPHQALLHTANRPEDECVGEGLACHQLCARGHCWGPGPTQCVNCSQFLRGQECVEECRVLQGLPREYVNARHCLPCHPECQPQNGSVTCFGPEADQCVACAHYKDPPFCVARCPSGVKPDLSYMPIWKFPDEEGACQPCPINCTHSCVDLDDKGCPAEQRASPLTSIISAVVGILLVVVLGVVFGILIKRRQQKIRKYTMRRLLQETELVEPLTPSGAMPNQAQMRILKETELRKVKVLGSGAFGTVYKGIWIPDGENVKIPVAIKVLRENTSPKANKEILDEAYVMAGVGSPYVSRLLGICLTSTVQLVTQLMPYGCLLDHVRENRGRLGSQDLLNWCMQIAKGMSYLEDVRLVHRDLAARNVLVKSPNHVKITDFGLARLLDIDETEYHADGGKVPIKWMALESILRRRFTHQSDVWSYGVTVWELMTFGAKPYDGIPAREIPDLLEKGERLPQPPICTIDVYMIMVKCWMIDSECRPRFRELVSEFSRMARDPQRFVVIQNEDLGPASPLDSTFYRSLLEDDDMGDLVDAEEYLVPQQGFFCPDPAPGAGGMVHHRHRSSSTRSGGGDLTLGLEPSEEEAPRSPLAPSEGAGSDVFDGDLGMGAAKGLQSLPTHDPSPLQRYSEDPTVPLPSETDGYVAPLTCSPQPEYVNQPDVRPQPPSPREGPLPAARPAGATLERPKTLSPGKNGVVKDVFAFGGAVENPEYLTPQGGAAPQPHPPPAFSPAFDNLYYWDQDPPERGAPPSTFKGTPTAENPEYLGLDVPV
Assay: Inhibition of recombinant human N-terminal GST-tagged HER2 wild type (679 to 1255 residues) expressed in baculovirus infected Sf9 insect cells using AQT0794 measured up to 240 mins by fluorescence assay
pKi: −log10 of the molar value.
result type: pKi

# compound, recorded result
measured = [
    ("C=CC(=O)Nc1ccc(OC)c(Nc2cc(-c3[nH]c(SC)nc3-c3ccc(F)cc3)ccn2)c1", 6.85),
    ("C=CC(=O)Nc1cc(Nc2nccc(-n3cc(CN(C)C)c(-c4ccccc4)n3)n2)c(OC)cc1N1CCOCC1 [LAZERTINIB]", 6.36),
]
